Target: catalytic domain of human Bub1 (amino acids 704-1085) (Homo sapiens)
Construct: catalytic domain of human Bub1 (amino acids 704-1085); His6 (N); made in house; host or cells: Hi5 insect cells
Sequence (O43683 704-1085): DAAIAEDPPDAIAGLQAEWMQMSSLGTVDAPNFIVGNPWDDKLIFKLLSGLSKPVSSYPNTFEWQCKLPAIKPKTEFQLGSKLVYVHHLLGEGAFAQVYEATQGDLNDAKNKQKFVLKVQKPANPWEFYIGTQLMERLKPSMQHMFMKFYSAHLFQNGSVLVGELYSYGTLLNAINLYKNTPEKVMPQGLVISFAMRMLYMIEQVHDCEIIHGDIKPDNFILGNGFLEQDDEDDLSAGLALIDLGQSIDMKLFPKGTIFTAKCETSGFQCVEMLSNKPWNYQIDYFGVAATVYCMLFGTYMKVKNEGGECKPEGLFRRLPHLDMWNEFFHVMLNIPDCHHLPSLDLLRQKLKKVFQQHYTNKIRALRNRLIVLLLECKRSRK
Test: Bub1 kinase assay (TR-FRET)
Assay type: biochemical
Conditions: TR-FRET, 10 μM ATP, 1 μM peptide substrate; read-out: Biological Assay 1: Bub1 kinase assay median IC50
// values below are reported log10(IC50)
EXPERIMENTAL READOUT: log10(IC50) (log10 of the value in nM)

>>> print(df.to_string())
                                  smiles_str  numeric_value
 0  CCOc1cc(F)c(Cn2nc(-c3nc(N)cc(Nc4ccncc4)n3)c3ccccc32)c(F)c1           0.81
 1  CCOc1cc(F)c(Cn2nc(-c3nc(N)c(N4CCOCC4)c(Nc4ccncc4)n3)c3ccccc32)c(F)c1           0.63
 2  CCOc1cc(F)c(Cn2nc(-c3nc(N)nc(Nc4ccncc4)n3)c3ccccc32)c(F)c1           0.76
 3  CCOc1cc(F)c(Cn2nc(-c3nc(N)c(N4CCOCC4)c(Nc4ccncn4)n3)c3ccccc32)c(F)c1           0.82
 4  CCOc1cc(F)c(Cn2nc(-c3nc(Nc4ccncc4)c(NS(=O)(=O)CC)c(Nc4ccncc4)n3)c3ccccc32)c(F)c1           2.85
 5  CCOc1cc(F)c(Cn2nc(-c3nc(N)c(NC(=O)COC)c(Nc4ccncc4)n3)c3ccccc32)c(F)c1           1.04
 6  CCOc1cc(F)c(Cn2nc(-c3nc(N)c(NC(=O)COC)c(Nc4ccncn4)n3)c3ccccc32)c(F)c1           0.90
 7  CCOc1cc(F)c(Cn2nc(-c3nc(Nc4ccncc4)c(OCCO)c(Nc4ccncc4)n3)c3ccccc32)c(F)c1           2.23
 8  CCOc1cc(F)c(Cn2nc(-c3nc(N)c(OCCOC)c(Nc4ccncc4)n3)c3ccccc32)c(F)c1           0.86
 9  Nc1cc(Nc2ccncc2)nc(-c2nn(Cc3ccccc3F)c3ccccc23)n1           1.28
10  CCOc1cc(F)c(Cn2nc(-c3nc(N)c(OC)c(Nc4ccncn4)n3)c3ccccc32)c(F)c1           0.81
11  CCOc1cc(F)c(Cn2nc(-c3nc(N)cc(Nc4ccncn4)n3)c3ccccc32)c(F)c1           0.72
12  CCOc1cc(F)c(Cn2nc(-c3nc(Nc4ccncc4)cc(Nc4ccncc4)n3)c3ccccc32)c(F)c1           1.91

###

Tested on: B16F10 cell line
Test: Proliferation assay (B16F10 cell line)
Type: cell-based
Conditions: Mus musculus, B16-F10, 96 h, read-out: Biological Assay 2: Proliferation assay (B16F10 cell line) median IC50
pIC50: −log10 of the molar value.
The entries below are paired with their reported pIC50.
EXPERIMENTAL READOUT: pIC50

                                 smiles_str            target  experimental_readout  numeric_value
0  CCOc1cc(F)c(Cn2nc(-c3nc(Nc4ccncc4)c(OCCO)c(Nc4ccncc4)n3)c3ccccc32)c(F)c1  B16F10 cell line                 pIC50           6.28
1  CCOc1cc(F)c(Cn2nc(-c3nc(Nc4ccncc4)c(OC)c(Nc4ccncc4)n3)c3ccccc32)c(F)c1  B16F10 cell line                 pIC50           6.27
2  CCOc1cc(F)c(Cn2nc(-c3nc(Nc4ccncc4)nc(Nc4ccncc4)n3)c3ccccc32)c(F)c1  B16F10 cell line                 pIC50           6.11
